# Test system: SF268 (Low Grade Glioma);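 also: after 72 h of two-drug dosing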
# experiment_description: Bliss excess, mean over the matrix (fraction); higher = more synergy
Parameter: Bliss excess. Scope: all listed entries.
readout_label: Bliss excess

{"compound": "COc1cccc(OCCCN)c1-c1cc(Nc2cnc(C#N)cn2)n[nH]1 [Prexasertib] + CCc1c2c(nc3ccc(O)cc13)-c1cc3c(c(=O)n1C2)COC(=O)[C@]3(O)CC [SN-38] (first compound max 1 µM, 7x7, partner max 0.3 µM)", "assay_target": "SF268 (Low Grade Glioma)", "readout_label": "Bliss excess", "reported_value": 0.0097}
{"compound": "COc1cccc(OCCCN)c1-c1cc(Nc2cnc(C#N)cn2)n[nH]1 [Prexasertib] + C[C@@H]1COCCN1C2=NC(=NC(=C2)C3(CC3)[S@](=N)(=O)C)C4=C5C=CNC5=NC=C4 [AZD6738] (first compound max 1 µM, 7x7, partner max 10 µM)", "assay_target": "SF268 (Low Grade Glioma)", "readout_label": "Bliss excess", "reported_value": -0.0421}

----------
# Tested on: MFE-280 (Endometrial Carcinoma)
# experiment_description: combination Emax (second highest fraction inhibited in the dose matrix, 72 h); higher = more inhibition; extreme values may be limits of the assay
Parameter: combination Emax. Scope: all listed entries.

{"compound": "CC1(C)CCC(CN2CCN(c3ccc(C(=O)NS(=O)(=O)c4ccc(NCC5CCOCC5)c([N+](=O)[O-])c4)c(Oc4cnc5[nH]ccc5c4)c3)CC2)=C(c2ccc(Cl)cc2)C1 [Venetoclax] + CN(C)CCCOc1ccc(-c2ccc3ncc4c(c3c2)n(C2CCOCC2)c(=O)n4C)cn1 [AZD0156] (first compound max 1 µM, 7x7, partner max 1 µM)", "combination Emax": 0.423}
{"compound": "Cc1cc2ncnn2cc1Nc1ncc2c(n1)n(C1CCOCC1)c(=O)n2C [AZD7648] + COc1cc([C@@H]2c3cc4c(cc3[C@@H](O[C@@H]3O[C@@H]5CO[C@@H](C)O[C@H]5[C@H](O)[C@H]3O)[C@H]3COC(=O)[C@H]23)OCO4)cc(OC)c1O [Etoposide] (first compound max 10 µM, 7x7, partner max 10 µM)", "combination Emax": 0.889}
{"compound": "CN(C)CCCOc1ccc(-c2ccc3ncc4c(c3c2)n(C2CCOCC2)c(=O)n4C)cn1 [AZD0156] + C=CCn1c(=O)c2cnc(Nc3ccc(N4CCN(C)CC4)cc3)nc2n1-c1cccc(C(C)(C)O)n1 [AZD1775] (first compound max 1 µM, partner max 1 µM)", "combination Emax": 0.55}
{"compound": "Cc1cc2ncnn2cc1Nc1ncc2c(n1)n(C1CCOCC1)c(=O)n2C [AZD7648] + CCN(CCO)CCCOc1ccc2c(Nc3cc(CC(=O)Nc4cccc(F)c4)[nH]n3)ncnc2c1 [AZD2811] (first compound max 10 µM, 7x7, partner max 1 µM)", "combination Emax": 0.377}

----------
# Test system: OAW-42 (Ovarian Carcinoma)
# experiment_description: combination Emax (second highest fraction inhibited in the dose matrix, 72 h); higher = more inhibition; extreme values may be limits of the assay
readout_label: combination Emax

{"molecule": "Cc1c2c(nn1C)CSCc1cc(n(C)n1)CSc1cc(c3ccccc3c1)OCCCc1c(C(=O)O)n(C)c3c-2c(Cl)ccc13 [AZD5991] + Cc1cc2ncnn2cc1Nc1ncc2c(n1)n(C1CCOCC1)c(=O)n2C [AZD7648] (first compound max 1 µM, 7x7, partner max 10 µM)", "reported_value": 0.502}
{"molecule": "NC1(C(=O)N[C@@H](CCO)c2ccc(Cl)cc2)CCN(c2ncnc3[nH]ccc23)CC1 [Capivasertib] + CC(C)n1c(=O)n(C)c2cnc3cc(F)c(-c4ccc(OCCCN5CCCCC5)nc4)cc3c21 [AZD1390] (first compound max 10 µM, 7x7, partner max 0.3 µM)", "reported_value": 0.439}
